Target: IMP-1 (Serratia marcescens, UniProt P52699)
Sequence (P52699 19-246, looked up, species assumed): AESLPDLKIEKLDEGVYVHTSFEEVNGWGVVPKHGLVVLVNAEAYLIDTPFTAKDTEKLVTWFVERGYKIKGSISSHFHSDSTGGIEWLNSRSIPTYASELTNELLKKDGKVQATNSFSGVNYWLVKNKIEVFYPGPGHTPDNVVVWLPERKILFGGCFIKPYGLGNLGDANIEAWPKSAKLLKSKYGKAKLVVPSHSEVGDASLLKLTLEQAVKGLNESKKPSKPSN
Assay: biochemical
Type: biochemical
Details: 300 μM imipenem, 10 mM HEPES pH 7.5, 25 °C; average of at least two independent assays; read-out: IMP-1 IC50
pIC50: −log10 of the molar value.
Reported pIC50 values follow for various compounds
Property Measured: pIC50

INSERT INTO results (compound, property_measured, qualifier_sign, assay_value) VALUES
  ('O=C(O)c1ncccc1NS(=O)(=O)Cc1ccc(Cl)cc1Cl [Compound 41]', 'pIC50', '=', 4.13),
  ('CS(=O)(=O)Nc1cccc(C(=O)O)n1 [Compound 47]', 'pIC50', '<', 3.70),
  ('O=C(CCc1ccccc1)Nc1cccnc1C(=O)O [Compound 19]', 'pIC50', '=', 4.47),
  ('N#Cc1cccc(S(=O)(=O)Nc2ccc(C(=O)O)nc2)c1 [Compound 60]', 'pIC50', '=', 3.79),
  ('O=C(O)c1ncccc1NS(=O)(=O)c1ccccc1Cl [Compound 34]', 'pIC50', '<', 3.70);

----------
Reported pIC50 values follow for various compounds
Molecular target: VIM-1 (Pseudomonas aeruginosa)
Experiment: biochemical
Type: biochemical
Settings: 300 μM imipenem, 10 mM HEPES pH 7.5, 25 °C; average of at least two independent assays; read-out: VIM-1 IC50
pIC50: −log10 of the molar value.
Property Measured: pIC50

INSERT INTO assay_data (smiles_input, property_measured, assay_value) VALUES
  ('O=C(Cc1c(Cl)cccc1Cl)Nc1cccc(C(=O)O)n1', 'pIC50', '< 3.70'),
  ('CCCCC(=O)Nc1cccc(C(=O)O)n1', 'pIC50', '< 3.70'),
  ('O=C(O)c1cccc(NC(=O)c2cocn2)n1', 'pIC50', '< 3.70'),
  ('O=C(O)c1ncccc1NS(=O)(=O)c1ccc(F)cc1', 'pIC50', '< 3.70'),
  ('O=C(O)c1ncccc1NS(=O)(=O)Cc1ccc(Cl)cc1Cl', 'pIC50', 4.76);

----------
Target: VIM-1 (Pseudomonas aeruginosa, UniProt A0A0F7KYQ8)
Assay: biochemical
Format: biochemical
Details: 300 μM imipenem, 10 mM HEPES pH 7.5, 25 °C; average of at least two independent assays; read-out: VIM-1 IC50
pIC50: −log10 of the molar value.
Property Measured: pIC50

INSERT INTO measurements (smiles_input, property_measured, assay_value) VALUES
  ('O=C(Cc1ccccc1)Nc1ccnc(C(=O)O)c1', 'pIC50', '< 3.70'),
  ('O=C(Cc1c(Cl)cccc1Cl)Nc1cccnc1C(=O)O', 'pIC50', '< 3.70'),
  ('CCCCNC(=O)c1cccc(C(=O)O)n1', 'pIC50', '< 3.70'),
  ('O=C(O)c1cc(NS(=O)(=O)c2ccccc2)ccn1', 'pIC50', '< 3.70'),
  ('O=C(O)c1ncccc1NS(=O)(=O)Cc1cccc(F)c1', 'pIC50', 3.97),
  ('O=C(O)c1ncccc1NS(=O)(=O)Cc1ccc([N+](=O)[O-])cc1', 'pIC50', '< 3.70'),
  ('O=C(CCc1ccccc1)Nc1cccnc1C(=O)O', 'pIC50', '< 3.70'),
  ('O=C(O)c1ncccc1NS(=O)(=O)Cc1cccc(C(F)(F)F)c1', 'pIC50', 4.15),
  ('O=C(O)c1cccc(C(=O)NCc2nccs2)n1', 'pIC50', '< 3.70'),
  ('N#Cc1cccc(S(=O)(=O)Nc2cccnc2C(=O)O)c1', 'pIC50', '< 3.70'),
  ('COc1cccc(S(=O)(=O)Nc2cccc(C(=O)O)n2)c1', 'pIC50', '< 3.70');
